Test system: OVCAR-4
Assay Summary: NCI tumour cell line growth inhibition, 48 h
Activity calls are given as the source filed them. Cut-off read from the data, not from the text of the source: active = GI50 up to about 1.1 µM and inactive = higher.
Examples of compounds with documented GI50 follow.

Study these solved cases before continuing.
COC(=O)c1nc2c3c(cccc3c1C(=O)OC)Nc1ccccc1-2 | 35.9 µM (inactive)
N=C(N)NS(=O)(=O)c1ccc(NC(=O)c2cccc3c(Nc4ccc(S(N)(=O)=O)cc4)c4ccccc4nc23)cc1 | > 100 µM (inactive)
CC(C)(C)C1=CC(=N/N=c2\scc(-c3ccccc3)n2Cc2ccccc2)C=C(C(C)(C)C)C1=O | > 100 µM (inactive)
CCNC(C)Cc1ccccc1 (configuration not stated) | > 100 µM (inactive)

Item: CCN(CC)C(=S)SS(=O)(=O)c1cccc(N)c1 | GI50: > 100 µM (inactive)

Item: OC12COc3ccccc3C1Oc1ccccc1C2 (configuration not stated) | GI50: > 100 µM (inactive)

Item: CCc1c(Cl)c(C)cc(O)c1Cl | GI50: 34.1 µM (inactive)

----------
System: SK-MEL-5
Assay Summary: NCI tumour cell line growth inhibition, 48 h
Active and inactive are the calls of the source. No stated cut-off is given here; in the data, active = GI50 up to about 1.1 µM and inactive = higher.
Examples of molecules with documented GI50 follow.

Item: N[C@@H]1c2c(Br)sc(Br)c2[C@H](O)[C@@H]1O | GI50: > 100 µM (inactive)

Item: CC(C)(C)C1=CC(=N/N=c2\scc(-c3ccccc3)n2Cc2ccccc2)C=C(C(C)(C)C)C1=O | GI50: > 100 µM (inactive)

Item: Oc1nc2c(c(-c3cccc(Cl)c3)n1)COC/C2=C\c1cccc(Cl)c1 | GI50: > 100 µM (inactive)

Item: Cc1nc(=O)n2c(C)n[nH]c2c1C(=O)O | GI50: 10 µM (inactive)

Item: CCOC(=O)N(C)C(=C(F)F)C(F)(F)F | GI50: 15.7 µM (inactive)

Item: CC1(O)CCC(C(C)(C)O)CC1 (stereo unspecified) | GI50: > 100 µM (inactive)

----------
Test system: SK-MEL-28
Assay Summary: NCI tumour cell line growth inhibition, 48 h
The source made the active and inactive calls. No stated cut-off is given here; in the data, active = GI50 up to about 1.1 µM and inactive = higher.
Examples of molecules with documented GI50 follow.

CC(C)NC(=O)OCc1c(COC(=O)NC(C)C)n(C)c2c1ccc1sccc12 | 18.1 µM (inactive)
CCOc1ccc(NC(=O)CC2SC(N)=NC2=O)cc1 (centres undefined) | > 100 µM (inactive)

Record O=C1C(c2ccc([N+](=O)[O-])cc2)=C(Cl)C(=O)c2c(O)cccc21 / SK-MEL-28, GI50 recorded as 18.9 µM (inactive)

Record ClCCCN(CCCCl)c1ccc(/C=N/c2cccc(Cl)c2)cc1 / SK-MEL-28, GI50 recorded as 55.8 µM (inactive)

Record O=C(/C=C/c1ccc(O)c(O)c1)OC1C[C@@](O)(C(=O)O)C[C@@H](O)[C@H]1OC(=O)/C=C/c1ccc(O)c(O)c1 (some centres undefined) / SK-MEL-28, GI50 recorded as > 100 µM (inactive)

Record CCCCCCCCC/C=C1/CC(CO)(COC(=O)CC(C(C)C)C(C)C)OC1=O (centres undefined) / SK-MEL-28, GI50 recorded as 14.4 µM (inactive)

Record Cc1ccccc1C1OC(=O)c2ccc3ccccc3c21 (centres undefined) / SK-MEL-28, GI50 recorded as 3.43 µM (inactive)

Record Nc1c2ccccc2nc2nccnc12 / SK-MEL-28, GI50 recorded as > 100 µM (inactive)

Record C/C(Cl)=N\OC(=O)Nc1ccc([N+](=O)[O-])cc1 / SK-MEL-28, GI50 recorded as 17.2 µM (inactive)

----------
System: SNB-75
Assay Summary: NCI tumour cell line growth inhibition, 48 h
Activity calls are given as the source filed them. No stated cut-off is given here; in the data, active = GI50 up to about 1.1 µM and inactive = higher.
Can you answer with just one of these options? active, inactive

COc1cc2c(c(OC)c1OC)-c1ccc(SC)cc1C(=O)CC2 | active
O=c1/c(=C/c2ccccc2[N+](=O)[O-])sc2nc3ccccc3n12 | inactive
O=C(CCN(C(=O)O)S(=O)(=O)c1ccc(NC(=O)c2ccccc2)cc1)NC1CCCCC1 | inactive
CC(CC(=O)N1C2CC3CCC2(CS1(=O)=O)C3(C)C)[Si](C)(C)C (stereo unspecified) | inactive
CC1(O)CCC(C(C)(C)O)CC1 (stereo unspecified) [TERPIN] | inactive

Now, please, on to the next compound.
Q: For COC(=O)C1=C(O)C(C(=O)OC)C2CC(=O)CC1C2(C)C (stereo unspecified) , what call appears in the results of this test?
Ans: inactive

----------
Tested on: LOX IMVI
Assay Summary: NCI tumour cell line growth inhibition, 48 h
Active and inactive are the calls of the source. No stated cut-off is given here; in the data, active = GI50 up to about 1.1 µM and inactive = higher.
Can you answer with just one of these options? TRUE (active), FALSE (inactive)

Cc1ccsc1/C=N/Nc1nncc2ccccc12 | FALSE
COC1(OC)CC(CO)(CNc2cc(Cl)nc(N)n2)C1 | FALSE
COC(=O)C1=C(C)NC(C)=C(C(=O)OC)C1c1cccc(/[N+]([O-])=C/c2ccccc2)c1 | FALSE
COc1cccc(/C=N/NC(=O)CN(C)C)c1O | FALSE
N[C@@H]1c2c(Br)sc(Br)c2[C@H](O)[C@@H]1O | FALSE
CC1=CC(C)(C)N=C2SC(c3ccc(N)cc3)=NN12 | FALSE

Q: For CC1=C(C(=O)Nc2cc(F)c(F)cc2F)C(c2ccc([N+](=O)[O-])cc2)C(C(=O)Nc2cc(F)c(F)cc2F)=C(C)N1 , what call appears in the results of this test?
Ans: FALSE

Q: For CC(=O)Nc1cc(Nc2cc(O)nc(O)n2)ccc1C , what call appears in the results of this test?
Ans: FALSE

Q: For CCC1C(=O)OCc2c1cc1n(c2=O)C(CC)c2c-1nc1ccccc1c2Cl (configuration not stated) , what call appears in the results of this test?
Ans: FALSE

Q: For O=C1CCC(=O)C12CCc1ccccc12 , what call appears in the results of this test?
Ans: FALSE

Q: For Cc1nc(=O)c2cc(CN(C)c3ccc(C(=O)N[C@@H](CCC(=O)O)C(=O)O)s3)ccc2[nH]1 , what call appears in the results of this test?
Ans: TRUE

Q: For CC(=O)N[C@@H](Cc1ccc(O)cn1)C(=O)NC1CCCCC1 , what call appears in the results of this test?
Ans: FALSE

Q: For Cc1ccccc1NC(=O)c1cc(-c2ccc([N+](=O)[O-])cc2)nc(S)n1 , what call appears in the results of this test?
Ans: FALSE

Q: For Nc1cc2c(c3ccccc13)C(CCl)CN2C(=O)c1cc2cc(NC(=O)Nc3ccc4[nH]c(C(=O)N5CC(CCl)c6c5cc(N)c5ccccc65)cc4c3)ccc2[nH]1 (configuration not stated) , what call appears in the results of this test?
Ans: TRUE

Q: For CC1=C(c2ccccc2)NC(=S)C(C)C(c2ccccc2)=N1 (configuration not stated) , what call appears in the results of this test?
Ans: FALSE

Q: For CCNC(C)Cc1ccccc1 (configuration not stated) , what call appears in the results of this test?
Ans: FALSE

Q: For COc1ccc2c(c1)[n+]([O-])c(-c1c(Cl)cccc1Cl)c(N)[n+]2[O-] , what call appears in the results of this test?
Ans: FALSE

Q: For CSc1cccc(NC(=O)OC2CCCCCCCCCCC2)c1 , what call appears in the results of this test?
Ans: FALSE

Q: For C[C@H]1CC[P+](C)(c2ccccc2)C1 (some centres not stated) , what call appears in the results of this test?
Ans: FALSE

----------
Examples of molecules with documented GI50 follow.
Test system: OVCAR-8
Assay Summary: NCI tumour cell line growth inhibition, 48 h
Calls of active or inactive are those of the source. Rule as the data show it: active = GI50 up to about 1.1 µM and inactive = higher.

O=C(Nc1ccccc1Cl)c1ccc([N+](=O)[O-])cc1 | > 100 µM (inactive)

Okay, now this molecule:
Item: O=c1/c(=C/c2ccccc2[N+](=O)[O-])sc2nc3ccccc3n12 | GI50: 38.9 µM (inactive)

----------
System: COLO 205
Assay Summary: NCI tumour cell line growth inhibition, 48 h
Active and inactive are the calls of the source. No stated cut-off is given here; in the data, active = GI50 up to about 1.1 µM and inactive = higher. Where a SMILES comes first, the peptide text is derived from it. The star is where a group is joined. Boc = CC(C)(C)OC(=O)*; Bn = c1ccc(C*)cc1
Measure: GI50

COc1cc(/C=C/C(=O)O)ccc1O [FERULATE] | > 100 µM (inactive)

Record COC(=O)C(CC(C)C)NC(=O)C(C)NC(=O)C(Cc1ccc(OCc2ccccc2)cc1)NC(=O)C(COCc1ccccc1)NC(=O)OC(C)(C)C (stereo not given) (Boc-S(Bn)Y(Bn)AL-OMe; configuration not given here) / COLO 205, GI50 recorded as > 100 µM (inactive)

Record CC(=O)Nc1cc(Nc2cc(O)nc(O)n2)ccc1C / COLO 205, GI50 recorded as > 100 µM (inactive)

Record COc1cccc(-c2nc(-c3cnccn3)n(COCCO)n2)c1 / COLO 205, GI50 recorded as > 100 µM (inactive)

Record CC1=NN(c2nc(N)nc(CCl)n2)CC1 / COLO 205, GI50 recorded as 18.5 µM (inactive)
